// reported IC50 at 24 h for each item listed
- experiment notes: Cytotoxicity against human HeLa cells assessed as decrease in cell viability measured after 24 hrs by MTS assay
- Type: toxicity, cell-based

I am curious: what IC50 at 24 h value has been reported for `O=C(c1cc(Cl)cc(Cl)c1O)c1[nH]c(F)c(Br)c1Br` ?
> 43.2 µM

What does the data say about its IC50 at 24 h? Entry: `O=C(c1cc(Br)c(F)[nH]1)c1cc(Cl)cc(Cl)c1O`
> 35.3 µM

Which IC50 at 24 h is listed for `O=C(c1ccccc1O)c1[nH]c(Cl)c(Cl)c1-n1c(C(=O)c2ccc(Cl)cc2O)cc(Cl)c1Cl` ?
> 40.9 µM

If you can, please state the reported IC50 at 24 h value of `O=C(c1cc(Br)c(Br)[nH]1)c1cc(Cl)cc(Cl)c1O` .
> 41.4 µM

# lookup: IC50 at 24 h of `O=C(c1cc(F)cc(F)c1O)c1[nH]c(Br)c(Br)c1Br`
> 46 µM

Look up IC50 at 24 h: `O=C(c1ccccc1O)c1[nH]c(Cl)c(Cl)c1-n1c(C(=O)c2cc(F)ccc2O)cc(Cl)c1Cl`
> 52.8 µM

---

- experiment notes: Selectivity index, ratio of IC50 for cytotoxicity against human HeLa cells to MIC for antibacterial activity against methicillin-resistant Staphylococcus aureus USA300 JE2
- Format: toxicity, cell-based
- conditions: read-out: Selectivity Index
value kind: selectivity ratio

Below, each entry is followed by its recorded selectivity ratio result.
input smiles | selectivity ratio
O=C(c1cc(Cl)cc(Cl)c1O)c1[nH]c(F)c(Br)c1Br | > 229
O=C(c1cc(Br)c(Br)[nH]1)c1cc(Cl)cc(Cl)c1O | > 567

Looking for the measured selectivity ratio of `O=C(c1ccccc1O)c1[nH]c(Cl)c(Cl)c1-n1c(C(=O)c2cc(F)ccc2O)cc(Cl)c1Cl` , can you help?
> 280

Could you share which selectivity ratio value was measured for `O=C(c1cc(Br)c(F)[nH]1)c1cc(Cl)cc(Cl)c1O` ?
> 484

Quick check: selectivity ratio of `O=C(c1ccccc1O)c1[nH]c(Cl)c(Cl)c1-n1c(C(=O)c2ccc(Cl)cc2O)cc(Cl)c1Cl` ?
> 524

I have this compound here, `O=C(c1cc(F)cc(F)c1O)c1[nH]c(Br)c(Br)c1Br` , and I need its recorded selectivity ratio.
> 275
